System: vesicular stomatitis virus particles (VSV) pseudotyped with EboV Zaire GP
Assay: microbe, parasite or virus in culture
Type: cell-based
Conditions: Vesicular stomatitis virus
Give measured IC50 for each item. Keep answers brief.

>>> recorded_measurement("O=C(CC1CCC(F)(F)CC1)NCC(=O)N1CCN(Cc2cc(Cl)ccc2NS(=O)(=O)C2CC2)CC1 [Compound 1379]")
"~2200 nM"
>>> recorded_measurement("CNc1ccc(Cl)cc1CN1CCN(C(=O)CNC(=O)C2CC23CCC(F)(F)CC3)CC1 (stereo not shown) [Compound 1391]")
"80 to 260 nM"
>>> recorded_measurement("Nc1ccc(C2CC2)cc1CN1CCN(C(=O)CNC(=O)C2CC23CCC(F)(F)CC3)CC1 (stereo not shown) [Compound 1397]")
"2400 to 4200 nM"

Entry O=C(NCC(=O)N1CCN(Cc2cc(Cl)ccc2O)CC1)C1CC12CCC(F)(F)CC2 (stereo not shown) [Compound 1398] — recorded IC50 = 75 to 320 nM

###

Tested on: vesicular stomatitis virus particles (VSV) pseudotyped with EboV Zaire GP
Test: microbe, parasite or virus in culture
Format: cell-based
Details: Vesicular stomatitis virus
RESULT_TYPE: IC50

>>> recorded_measurement("CC(=O)N1CCCC(Oc2cc(F)cc(CN3CCN(C(=O)CNC(=O)C4CC45CCC(F)(F)CC5)CC3)c2)C1 (centres unmarked)")
"> 5000 nM"
>>> recorded_measurement("O=C(CC1CCC(F)(F)CC1)NCC(=O)N1CCN(Cc2cc(Br)ccc2F)CC1")
"~2200 nM"
>>> recorded_measurement("O=C(CC1CCC(F)(F)CC1)NCC(=O)N1CCN(Cc2cccc(Oc3ccccn3)c2)CC1")
"> 5000 nM"

Each molecule below has a reported value. Please supply its IC50.
1. O=C(CC1CCC(F)(F)CC1)NCC(=O)N1CCN(Cc2cc(Br)ccc2Cl)CC1
2. O=C(CC1CCC(F)(F)CC1)NCC(=O)N1CCN(Cc2cc(Br)ccc2NC(=O)C2CC2)CC1
3. COC(=O)CCCOc1ccc(Cl)cc1CN1CCN(C(=O)CNC(=O)CC23CC4CC(CC(C4)C2)C3)CC1
4. O=C(CC12CC3CC(CC(C3)C1)C2)NCC(=O)N1CCN(Cc2cc(OC3CC3)ccc2F)CC1
5. Nc1c(Cl)cc(Cl)cc1CN1CCN(C(=O)CNC(=O)CC2CCC(F)(F)CC2)CC1

Result:
["> 2000 nM", "> 2000 nM", "~2000 nM", "> 2000 nM", "> 2000 nM"]
